Recorded measurements of cell viability (log2), one per entry
- Test system: A673/TR/shEF
- Experiment summary: cell viability (LOESS-normalised, relative to median of negative controls) (log2 ratio); higher = more viable cells (less compound effect), active = hit call of the paper (over 3 MAD below the median)
- Protocol conditions: 2.5 µM; library screen: screen1; EWS-FLI1 expression: low (doxycycline-induced shRNA knockdown); treatment time: 72 h
Among all 3,200 compounds or so, about 300 (9.4%) showed activity. The full list was thinned out, with actives kept by preference.

| Molecule | cell viability (log2) |
| --- | --- |
| CCc1cn([C@H]2C[C@H](O)[C@@H](CO)O2)c(=O)[nH]c1=O | 0.152 |
| COC1[C@H](O)[C@@H](O)C(O)[C@H](O)[C@H]1O (stereo not given in full) | 0.115 |
| CCOC(=O)c1oc2c(OC)c(O)cc(O)c2c(=O)c1-c1cc(OC)c(OC)c(OC)c1 | -0.108 |
| C[C@H]1O[C@@H](n2cc(F)c(=O)[nH]c2=O)[C@H](O)[C@@H]1O | -0.0424 |
| CC(C)c1c(O)ccc2c1CC[C@H]1[C@@](C)(CO)CCC[C@]21C | 0.239 |
